Assay: Growth inhibition of human Hs683 cells after 72 hrs by MTT assay
Assay type: functional, cell-based
Conditions: Hs 683, 72 h
Hi there, I'd appreciate the recorded IC50 for every entry that follows.
Numbers only, in nM.

Study these solved cases before continuing.
C[C@]12CC[C@H]3[C@@H](CC[C@]4(O)C[C@@H](OS(=O)(=O)O)CC[C@]34CO)[C@@]1(O)CC[C@@H]2c1ccc(=O)oc1; 50
C[C@]12CC[C@H]3[C@@H](CC[C@@H]4C[C@@H](OS(=O)(=O)O)CC[C@@]43CO)[C@@]1(O)CC[C@@H]2c1ccc(=O)oc1; 82
C[C@@H]1O[C@@H](O[C@H]2CC[C@]3(C=O)[C@H]4CC[C@]5(C)[C@@H](c6ccc(=O)oc6)CC[C@]5(O)[C@@H]4CC[C@]3(O)C2)[C@H](O)[C@H](O)[C@H]1O[C@@H]1O[C@H](CO)[C@@H](O)[C@H](O)[C@H]1O; 7
C[C@]12CC[C@H](OS(=O)(=O)O)C[C@H]1CC[C@@H]1[C@@H]2CC[C@]2(C)[C@@H](c3ccc(=O)oc3)[C@@H](O)C[C@]12O; 177

Hi! Can you tell me IC50 for each of these compounds?
1. C[C@]12CC[C@H](OS(=O)(=O)O)C[C@@]1(O)CC[C@@H]1[C@@H]2CC[C@]2(C)[C@@H](c3ccc(=O)oc3)CC[C@]12O
2. C[C@]12CC[C@H]3[C@@H](CC[C@]4(O)C[C@@H](OS(=O)(=O)O)CC[C@]34C=O)[C@@]1(O)CC[C@@H]2c1ccc(=O)oc1
3. CC(=O)O[C@H]1C[C@]2(O)[C@@H]3CC[C@@H]4C[C@@H](O)CC[C@]4(C)[C@H]3[C@H](O)C(=O)[C@]2(C)[C@H]1c1ccc(=O)oc1

1: 7; 2: 98; 3: 455
